Assignment: determine reported pIC50 for the given molecules.
# Target Or System: hepatic lipase (HL) (Homo sapiens, UniProt P11150)
# Construct: made in house; host or cells: COS cells (conditioned medium, partially purified)
# Sequence (P11150 23-499, species assumed): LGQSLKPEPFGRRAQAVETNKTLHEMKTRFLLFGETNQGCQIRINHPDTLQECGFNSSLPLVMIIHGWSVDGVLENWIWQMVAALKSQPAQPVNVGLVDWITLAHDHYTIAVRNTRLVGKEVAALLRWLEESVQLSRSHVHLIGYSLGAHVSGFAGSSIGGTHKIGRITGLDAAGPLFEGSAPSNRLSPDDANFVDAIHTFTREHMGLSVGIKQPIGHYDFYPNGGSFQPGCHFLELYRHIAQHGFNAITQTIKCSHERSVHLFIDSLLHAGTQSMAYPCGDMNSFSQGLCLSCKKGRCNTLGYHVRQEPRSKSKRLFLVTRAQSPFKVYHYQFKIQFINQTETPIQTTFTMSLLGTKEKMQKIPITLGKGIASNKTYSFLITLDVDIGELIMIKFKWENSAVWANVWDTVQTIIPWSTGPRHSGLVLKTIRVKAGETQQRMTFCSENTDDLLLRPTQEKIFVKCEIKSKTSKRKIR
# Measurement Description: Hepatic lipase (HL) enzymatic assay, fluorescent substrate A10070 in DMPG vesicles
# Type: biochemical
# Condition Notes: HL partially purified from conditioned media of COS cells; compound preincubated 30 min at 37° C; read-out: HL IC50
One number for each entry, as −log10 of the molar value.

CS(=O)(=O)C(c1nnc(CNS(N)(=O)=O)o1)c1nc2ccc(-c3cccc(C(=O)N4CC(F)(F)C4)c3)cc2s1 (centres unmarked) [Example 251] = 7.68
CS(=O)(=O)C(c1nnc(CC2SC(=O)NC2=O)o1)c1nc2cc(F)c(-c3ccccc3)cc2s1 (centres unmarked) = 7.89
Cc1cc(-c2ccc3nc(C(c4nnc(CNS(N)(=O)=O)o4)S(C)(=O)=O)sc3c2)n(C)n1 (centres unmarked) = 6.40
NS(=O)(=O)NCc1nnc(C(c2nc3ccc(Br)cc3s2)S(=O)(=O)Cc2ccccc2)o1 (centres unmarked) = 7.43
CN(C)C(=O)c1ccc(-c2ccc3nc(C(c4nnc(CNS(=O)(=O)NC(=O)OC(C)(C)C)o4)S(=O)(=O)Cc4ccccc4)sc3c2)cc1Cl (centres unmarked) = 7.30
CC1(Cc2nnc(C(c3nc4ccc(-c5cccc(C(=O)NC6CC6)c5)cc4s3)S(C)(=O)=O)o2)NC(=O)NC1=O (centres unmarked) = 7.29
CN1CCN(C(=O)c2cccc(-c3ccc4nc(C(c5nnc(CNS(N)(=O)=O)o5)S(=O)(=O)Cc5ccccc5)sc4c3)c2)CC1 (centres unmarked) = 5.04
COCc1ccc(-c2ccc3nc(C(c4nnc(CNS(N)(=O)=O)o4)S(=O)(=O)Cc4cc(C(F)(F)F)cc(C(F)(F)F)c4)sc3c2)cc1 (centres unmarked) = 7.77

Kindly review the next molecule as well.
Q: Record request: pIC50 value, item CS(=O)(=O)C(c1nnc(CNS(N)(=O)=O)o1)c1nc2ccc(-c3cccc(C(=O)N4CCC(F)(F)CC4)c3)cc2s1 (centres unmarked)
Result: 7.77

* * *

# Target Or System: hepatic lipase (HL) (Homo sapiens, UniProt P11150)
# Construct: made in house; host or cells: COS cells (conditioned medium, partially purified)
# Measurement Description: Hepatic lipase (HL) enzymatic assay, fluorescent substrate A10070 in DMPG vesicles
# Format: biochemical
# Condition Notes: HL partially purified from conditioned media of COS cells; compound preincubated 30 min at 37° C; read-out: HL IC50
Reported Metric: IC50
Give the value; after it, write the unit.

CS(=O)(=O)C(c1nnc(CNS(N)(=O)=O)o1)c1nc2ccc(-c3cccc(C(=O)N4CC[C@H](O)C4)c3)cc2s1 (stereo partly drawn) [Example 266] = 94 nM
CC(C)(C)OC(=O)Cc1nnc(C(c2nc3ccc(-c4ccc(C(=O)N5CCOCC5)cc4)cc3s2)S(=O)(=O)Cc2ccccc2)o1 (stereo not drawn) [Example 108] = 14 nM

Kindly review the next compound as well.
Q: Request body: readout IC50, system hepatic lipase (HL) (Homo sapiens, UniProt P11150), query CC(C)(C)OC(=O)Cc1nnc(C(c2nc3ccc(-c4ccc(C(=O)N5CCOCC5)cc4)cc3s2)S(C)(=O)=O)o1 (stereo not drawn) [Example 107] . Return the value.
Result: 13 nM

* * *

# Target Or System: Endothelial lipase (EL) (Homo sapiens, UniProt Q9Y5X9)
# Construct: HT-1080 cells that were transformed using RAGE technology (Athersys) to overexpress endogenous EL; endogenous in cells; conditioned medium used
# Measurement Description: Endothelial lipase (EL) enzymatic assay, fluorescent substrate A10070 in DMPG vesicles
# Type: biochemical
# Condition Notes: EL from conditioned media of HT-1080 cells; compound preincubated 30 min at 37° C; read-out: EL IC50
# Experimental: Endothelial lipase (EL) and hepatic lipase (HL) activities were measured using a fluorescent substrate, A10070, (Invitrogen, CA) doped into an artificial vesicle containing DMPG (Avanti Polar Lipids) as the excipient. […] The enzymatic assay was measured using 384-well white Optiplates. […] The reaction rates were measured on a Gemini plate reader with an excitation wavelength of 490 nm and an emission wavelength of 530 nm. […]
Reported Metric: log10 IC50 (log10 of the value in nM)
Kindly note that the scale is log10 and the underlying IC50 is in nM.

CN1CCN(C(=O)c2ccc(-c3ccc4nc(C(c5nnc(CNS(N)(=O)=O)o5)S(C)(=O)=O)sc4c3)cc2)CC1 (stereo not drawn) = 1.76
CS(=O)(=O)C(c1nnc(CNS(N)(=O)=O)o1)c1nc2ccc(-c3cccc(C(=O)N4CCC(F)(F)CC4)c3)cc2s1 (stereo not drawn) = 0.70
COCCNC(=O)c1cccc(-c2ccc3nc(C(c4nnc(CNS(N)(=O)=O)o4)S(C)(=O)=O)sc3c2)c1 (stereo not drawn) = 1.15

Provide reported log10 IC50 for each item, in the same order as listed.
1. CC1(Cc2nnc(C(c3nc4ccc(-c5ccc(F)nc5)cc4s3)S(C)(=O)=O)o2)NC(=O)NC1=O (single isomer, unassigned; isomer a) [Example 21]
2. CS(=O)(=O)C(c1nnc(CNS(N)(=O)=O)o1)c1nc2cc(-c3ncccn3)ccc2s1 (stereo not drawn)
3. NS(=O)(=O)NCc1nnc(C(c2nc3ccc(-c4ccc(F)nc4)cc3s2)S(=O)(=O)Cc2ccc(F)nc2)o1 (stereo not drawn)
4. CC(c1nnc(CNS(N)(=O)=O)o1)c1nc2ccc(-c3ccc(F)nc3)cc2s1 (stereo not drawn) [Reference 3, reference compound]
5. COc1nc(-c2nnc(C(c3nc4ccc(-c5ccccc5)cc4s3)S(=O)(=O)CCC(F)(F)F)o2)c(O)c(=O)[nH]1 (stereo not drawn)

Result:
[2.45, 0.95, 1.26, 3.81, 1.89]

* * *

# Target Or System: hepatic lipase (HL) (Homo sapiens)
# Construct: made in house; host or cells: COS cells (conditioned medium, partially purified)
# Measurement Description: Hepatic lipase (HL) enzymatic assay, fluorescent substrate A10070 in DMPG vesicles
# Assay type: biochemical
# Condition Notes: HL partially purified from conditioned media of COS cells; compound preincubated 30 min at 37° C; read-out: HL IC50
Reported Metric: IC50
Give the value; after it, write the unit.

CO[C@@H]1CCN(C(=O)c2cccc(-c3ccc4nc(C(c5nnc(CC6(C)NC(=O)NC6=O)o5)S(C)(=O)=O)sc4c3)c2)C1 (stereo partly shown) [Example 211] = 575 nM
O=C(Cc1nnc(C(c2nc3ccc(-c4ccc(C(=O)N5CCOCC5)cc4)cc3s2)S(=O)(=O)Cc2ccccc2)o1)NC1CCCC1 (stereo not shown) [Example 180] = 44 nM
CS(=O)(=O)C(c1nnc(CC2SC(=O)NC2=O)o1)c1nc2ccc(Br)cc2s1 (stereo not shown) [Example 100] = 291 nM

Kindly review the next compound as well.
Q: Record request: IC50 value, item CS(=O)(=O)C(c1nnc(CNS(N)(=O)=O)o1)c1nc2cc(-c3cncnc3)ccc2s1 (stereo not shown) [Example 247]
Result: 43 nM

* * *

# Target Or System: Endothelial lipase (EL) (Homo sapiens, UniProt Q9Y5X9)
# Construct: HT-1080 cells that were transformed using RAGE technology (Athersys) to overexpress endogenous EL; endogenous in cells; conditioned medium used
# Sequence (Q9Y5X9 21-500): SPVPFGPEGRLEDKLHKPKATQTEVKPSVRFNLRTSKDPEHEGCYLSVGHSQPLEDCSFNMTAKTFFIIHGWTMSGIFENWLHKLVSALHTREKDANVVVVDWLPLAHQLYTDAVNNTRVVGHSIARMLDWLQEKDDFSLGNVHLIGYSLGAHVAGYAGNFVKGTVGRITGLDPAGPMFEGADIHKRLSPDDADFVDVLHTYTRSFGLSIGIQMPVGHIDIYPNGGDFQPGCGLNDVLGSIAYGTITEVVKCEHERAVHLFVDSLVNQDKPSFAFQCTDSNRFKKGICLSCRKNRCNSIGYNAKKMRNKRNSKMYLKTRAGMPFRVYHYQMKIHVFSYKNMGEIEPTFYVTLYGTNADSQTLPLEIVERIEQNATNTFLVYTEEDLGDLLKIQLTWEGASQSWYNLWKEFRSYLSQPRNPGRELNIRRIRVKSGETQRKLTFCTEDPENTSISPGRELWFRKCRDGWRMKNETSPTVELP
# Measurement Description: Endothelial lipase (EL) enzymatic assay, fluorescent substrate A10070 in DMPG vesicles
# Assay type: biochemical
# Condition Notes: EL from conditioned media of HT-1080 cells; compound preincubated 30 min at 37° C; read-out: EL IC50
Reported Metric: IC50

Worked cases, answers included:
CS(=O)(=O)C(c1nnc(C[C@@H]2NS(=O)(=O)NC2=O)o1)c1nc2cc(F)c(-c3ccccc3)cc2s1 (stereo partly shown) = < 10 nM
COCCS(=O)(=O)C(c1nnc(CNS(N)(=O)=O)o1)c1nc2ccc(-c3cnn(C)c3)cc2s1 (stereo not shown) = < 10 nM
CS(=O)(=O)C(c1nnc(CC2SC(=O)NC2=O)o1)c1nc2ccc(-c3ccnc(C#N)c3)cc2s1 (stereo not shown) = < 10 nM

Provide reported IC50 for each item, in the same order as listed.
1. CC(O)CS(=O)(=O)C(c1nnc(CNS(N)(=O)=O)o1)c1nc2ccc(-c3ccccc3)cc2s1 (stereo not shown)
2. CS(=O)(=O)C(c1nnc(CNS(N)(=O)=O)o1)c1nc2ccc(-c3cccc(C(=O)Nc4cccnc4)c3)cc2s1 (stereo not shown)
3. Cc1nccn1-c1nc(-c2ccc3nc(C(c4nnc(CC5SC(=O)NC5=O)o4)S(C)(=O)=O)sc3c2)cs1 (stereo not shown)
4. NS(=O)(=O)NCc1nnc(C(c2nc3ccc(-c4ccc(Cl)c(Cl)c4)cc3s2)S(=O)(=O)Cc2ccccc2)o1 (stereo not shown)

Result:
["< 10 nM", "4 nM", "< 10 nM", "< 10 nM"]
